Biological target: T1, soluble human BLyS (human, UniProt Q9Y275 134-285)
T1 construct: also called hBLyS; human BAFF (BLyS)
Assay: DELFIA competition, Eu-hBLyS binding to coated BCMA
Please respond with reported pIC50 for every item in the list.
One number for each entry, as −log10 of the molar value.

Recorded pIC50, per entry:
- BINDER: "6C10 IgG1 F243A/V264A double mutein expressed in Pichia pastoris (antibody, V domains shown, IgG1 F243A/V264A (EU) double mutein, alpha-2,6-sialylated, from glycoengineered Pichia pastoris; also called 6C10-DM; 6C10-DM (Pichia)) VH: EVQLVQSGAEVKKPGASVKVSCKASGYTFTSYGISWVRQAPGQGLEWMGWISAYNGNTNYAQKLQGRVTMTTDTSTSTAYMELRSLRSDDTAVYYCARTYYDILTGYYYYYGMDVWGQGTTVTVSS VL: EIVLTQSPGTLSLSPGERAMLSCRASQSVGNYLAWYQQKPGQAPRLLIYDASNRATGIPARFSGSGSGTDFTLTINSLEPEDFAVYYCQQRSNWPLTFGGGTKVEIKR"
  MEASURED RESULT: 10.77
- BINDER: "8D12 IgG expressed in HEK293 cells (antibody, V domains shown, IgG from HEK293-FreeStyle cells; also called 8D12 (293)) VH: QVQLVQSGAEVKKPGASVKVSCKASGYTFTSYAMHWVRQAPGQRLEWMGWINAGNGNTKYSQKFQGRVTITRDTSASTAYMELSSLRSEDTAVYYCARAYYDILTGYSVYGMDVWGQGTTVTVSS VL: EIVLTQSPATLSLSPGERATLSCRANESVGNYLAWYQQKPGQAPRLLIYGASRRATGIPDRFSGSGSGTDFTLTISRLEPEDFAVYYCQQYGSSLLTFGGGTKVEIKR"
  MEASURED RESULT: 9.20
- BINDER: "6C10 IgG expressed in HEK293 cells (antibody, V domains shown, IgG from HEK293-FreeStyle cells; also called 6C10 (293)) VH: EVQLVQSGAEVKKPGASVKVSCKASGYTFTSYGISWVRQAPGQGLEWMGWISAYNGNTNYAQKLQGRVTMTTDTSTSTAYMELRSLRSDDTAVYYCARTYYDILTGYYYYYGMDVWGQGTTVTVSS VL: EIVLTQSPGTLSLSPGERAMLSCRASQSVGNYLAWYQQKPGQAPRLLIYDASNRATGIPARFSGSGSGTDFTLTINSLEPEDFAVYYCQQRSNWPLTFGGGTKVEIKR"
  MEASURED RESULT: 10.97
- BINDER: "5B7 IgG1 F243A/V264A double mutein expressed in Pichia pastoris (antibody, V domains shown, IgG1 F243A/V264A (EU) double mutein, alpha-2,6-sialylated, from glycoengineered Pichia pastoris; also called 5B7-DM; 5B7-DM Pichia) VH: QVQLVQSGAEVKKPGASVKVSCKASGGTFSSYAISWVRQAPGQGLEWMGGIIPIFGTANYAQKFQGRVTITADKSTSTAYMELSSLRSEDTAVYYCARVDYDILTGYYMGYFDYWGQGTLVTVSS VL: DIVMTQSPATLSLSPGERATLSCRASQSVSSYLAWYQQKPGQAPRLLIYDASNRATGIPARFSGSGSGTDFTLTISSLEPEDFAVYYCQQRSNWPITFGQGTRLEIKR"
  MEASURED RESULT: 11.80
- BINDER: "5B7 IgG expressed in HEK293 cells (antibody, V domains shown, also called 5B7 (293); 5B7-HEK293) VH: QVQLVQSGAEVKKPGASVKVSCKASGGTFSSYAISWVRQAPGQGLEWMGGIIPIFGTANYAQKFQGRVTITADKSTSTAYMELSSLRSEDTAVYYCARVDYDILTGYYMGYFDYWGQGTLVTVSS VL: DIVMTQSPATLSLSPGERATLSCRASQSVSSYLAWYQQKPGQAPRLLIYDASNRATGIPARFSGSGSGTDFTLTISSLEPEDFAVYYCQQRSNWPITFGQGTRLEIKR"
  MEASURED RESULT: 11.74

// next item, pIC50 requested
Given the entry 8D12 IgG1 F243A/V264A double mutein expressed in Pichia pastoris (antibody, V domains shown, IgG1 F243A/V264A (EU) double mutein, alpha-2,6-sialylated, from glycoengineered Pichia pastoris; also called 8D12-DM; 8D12-DM (Pichia)) VH: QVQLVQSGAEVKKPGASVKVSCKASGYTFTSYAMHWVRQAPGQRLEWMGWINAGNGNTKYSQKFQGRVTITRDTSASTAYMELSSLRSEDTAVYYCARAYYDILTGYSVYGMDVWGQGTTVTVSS VL: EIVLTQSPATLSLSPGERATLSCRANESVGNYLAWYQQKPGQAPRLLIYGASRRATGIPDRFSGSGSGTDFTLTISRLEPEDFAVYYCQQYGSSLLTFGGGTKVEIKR , report its measured pIC50. 8.89

The measured values listed here are drawn from patent US20170101466A1.
